Every entry's value here was drawn from BigSolDB 2.1.

- recordedConditions: in isopropanol, 298.45 K
measurementType: solubility (mole fraction)

[[record]]
smilesstructure = "C[N+](C)(C)CC(=O)[O-]"
readoutvalue = 0.0071


---

- recordedConditions: in isopropanol, 283.45 K
measurementType: solubility (mole fraction)

[[record]]
smilesstructure = "C[N+](C)(C)CC(=O)[O-]"
readoutvalue = 0.00458


---

- recordedConditions: in methanol, 283.15 K
measurementType: solubility (mole fraction)

[[record]]
smilesstructure = "C[N+](C)(C)CC(=O)[O-]"
readoutvalue = 0.117


---

- recordedConditions: in n-propanol, 293.55 K
measurementType: solubility (mole fraction)

[[record]]
smilesstructure = "C[N+](C)(C)CC(=O)[O-]"
measurementtype = "solubility (mole fraction)"
readoutvalue = 0.0177


---

- recordedConditions: in ethanol, 288.15 K
measurementType: solubility (mole fraction)

[[record]]
smilesstructure = "C[N+](C)(C)CC(=O)[O-]"
readoutvalue = 0.0298


---

- recordedConditions: in n-butanol, 293.05 K
measurementType: solubility (mole fraction)

[[record]]
smilesstructure = "C[N+](C)(C)CC(=O)[O-]"
readoutvalue = 0.0109


---

- recordedConditions: in ethanol, 282.95 K
measurementType: solubility (mole fraction)

[[record]]
smilesstructure = "C[N+](C)(C)CC(=O)[O-]"
measurementtype = "solubility (mole fraction)"
readoutvalue = 0.0264


---

- recordedConditions: in water, 293.2 K
measurementType: solubility (mole fraction)

[[record]]
smilesstructure = "C[N+](C)(C)CC(=O)[O-]"
readoutvalue = 0.194


---

- recordedConditions: in methanol, 303.2 K
measurementType: solubility (mole fraction)

[[record]]
smilesstructure = "C[N+](C)(C)CC(=O)[O-]"
measurementtype = "solubility (mole fraction)"
readoutvalue = 0.136


---

- recordedConditions: in methanol, 298.25 K
measurementType: solubility (mole fraction)

[[record]]
smilesstructure = "C[N+](C)(C)CC(=O)[O-]"
measurementtype = "solubility (mole fraction)"
readoutvalue = 0.131


---

- recordedConditions: in n-propanol, 303.45 K
measurementType: solubility (mole fraction)

[[record]]
smilesstructure = "C[N+](C)(C)CC(=O)[O-]"
readoutvalue = 0.0225


---

- recordedConditions: in isopropanol, 293.15 K
measurementType: solubility (mole fraction)

[[record]]
smilesstructure = "C[N+](C)(C)CC(=O)[O-]"
measurementtype = "solubility (mole fraction)"
readoutvalue = 0.00622


---

- recordedConditions: in water, 283.15 K
measurementType: solubility (mole fraction)

[[record]]
smilesstructure = "C[N+](C)(C)CC(=O)[O-]"
readoutvalue = 0.184


---

- recordedConditions: in ethanol, 298.45 K
measurementType: solubility (mole fraction)

[[record]]
smilesstructure = "C[N+](C)(C)CC(=O)[O-]"
readoutvalue = 0.0372


---

- recordedConditions: in water, 288.25 K
measurementType: solubility (mole fraction)

[[record]]
smilesstructure = "C[N+](C)(C)CC(=O)[O-]"
readoutvalue = 0.189


---

- recordedConditions: in isopropanol, 288.65 K
measurementType: solubility (mole fraction)

[[record]]
smilesstructure = "C[N+](C)(C)CC(=O)[O-]"
readoutvalue = 0.0054


---

- recordedConditions: in ethanol, 303.05 K
measurementType: solubility (mole fraction)

[[record]]
smilesstructure = "C[N+](C)(C)CC(=O)[O-]"
measurementtype = "solubility (mole fraction)"
readoutvalue = 0.041

